Subject of test: T1, A beta oligomer (synthetic A beta1-40, HCl form, 0.1 mg/ml in PBS, incubated at 37 degrees C for one hour) (UniProt P05067 672-711)
T1 construct: domain: A beta1-40; non-fibrous multimer of the peptide; also called A beta 1-40 oligomer
Experimental protocol: SPR (Biacore 3000)
Measured endpoint: kon (M⁻¹ s⁻¹)
Just the number please, in M⁻¹ s⁻¹, no unit attached.

// IR-108 antibody (antibody, mouse IgG2a, V domains shown, mouse IgG2a) VH: QVTLKESGPGILKPSQTLSLTCSFSGFSLSTSGMGVGWIRQPSGKGLEWLAHIWWDDDKYYNPSLKSQLTISKDTSRNQVFLKITSVDTADTATYYCARRGLRRGDYFDYWGQGTTLTVSS VL: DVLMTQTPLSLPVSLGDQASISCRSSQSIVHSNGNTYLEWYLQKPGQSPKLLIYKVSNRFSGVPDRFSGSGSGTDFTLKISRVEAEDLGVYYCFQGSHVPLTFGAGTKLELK : kon value = 250000
